# target: GTPase HRas (Homo sapiens)
# protocolSummary: Ras wt fluorescent GTP loading blockade – biochemical, wildtype, multiplex bead flow cytometry, dose response (AID 1335)
# reportedConditions: bead-based flow cytometry, Bodipy-GTP binding to GST-Ras; at 100 µM (top of the series) unless noted
# Lookup of reported GTP binding, percent of control keyed by entry
Numeric answer only, unit % assumed.

COC(=O)c1c(N2C(=O)[C@H]3[C@@H](C2=O)[C@]2(C(=O)Nc4c(C)cc(C)cc42)N2CCC[C@@H]32)sc(C)c1C	97.2
COc1cccc(OCc2c(C)cccc2C)c1C(=O)O	209
C=CCc1ccccc1OCc1cccc(C(=O)O)c1	99.3
N#C/C(=C(/O)COc1ccc(Br)cc1)c1nnc2n1CCCCC2	79.2
COC(=O)c1ccc(/C=N/Nc2nc(-c3ccc(Cl)cc3Cl)cs2)cc1	81.6

Next, consider the following compound.
For `CN1C(=O)N(C)c2ccc(C=O)c3cccc1c23` , what is its reported GTP binding, percent of control?
82.8
